Tested on: sicklepod (Cassia obtusifolia, CASOB)
assay: Post-emerge test, greenhouse herbicide activity screening
Type: in vivo
measurement setup: post-emerge, 63 g ai/ha, phytotoxicity rating 0-100 at 14 days after application
The entries below come with measured Post-emerge Herbicidal Activity CASOB values attached.

Example entries begin here.
- compound: "C=Cc1ccc(C(=O)Nc2c(OC)c(Cl)cc(F)c2N2C(=O)C3=C(CCCC3)C2=O)cc1"
  Post-emerge Herbicidal Activity CASOB: 80
- compound: "COc1cccc(OC)c1OC(=O)Nc1c(C)c(Cl)cc(F)c1-n1c(=O)cc(C(F)(F)F)n(C)c1=O"
  Post-emerge Herbicidal Activity CASOB: 30
- compound: "Cc1cccc(COC(=O)Nc2c(C)c(Cl)cc(F)c2-n2c(=O)cc(C(F)(F)F)n(C)c2=O)c1"
  Post-emerge Herbicidal Activity CASOB: 100
- compound: "O=C(Nc1cc(Cl)ccc1N1C(=O)C2CCCCN2C1=O)c1ccc2ccccc2c1 (stereo not shown)"
  Post-emerge Herbicidal Activity CASOB: 50
- compound: "COc1c(Cl)cc(F)c(-n2ncc(C(F)(F)F)cc2=O)c1NC(=O)c1ccc2ccccc2c1"
  Post-emerge Herbicidal Activity CASOB: 100
- compound: "Cc1c(Cl)cc(F)c(-n2c(=O)cc(C(F)(F)F)n(C)c2=O)c1NC(=O)OCc1ccc(Cl)cc1"
  Post-emerge Herbicidal Activity CASOB: 100
- compound: "COc1c(Cl)cc(F)c(N2C(=O)c3ccccc3C2=O)c1NC(=O)c1ccc(F)cc1F"
  Post-emerge Herbicidal Activity CASOB: 95
- compound: "CC(C)Oc1c(Cl)cc(F)c(N2C(=O)C3=C(CCCC3)C2=O)c1NC(=O)c1ccc(F)cc1F"
  Post-emerge Herbicidal Activity CASOB: 30
- compound: "Nc1c(O)c(Cl)cc(F)c1N1C(=O)C2CCCCN2C1=S (single isomer, unassigned)"
  Post-emerge Herbicidal Activity CASOB: 50

Now examine the next entry.
[ask] Supply Post-emerge Herbicidal Activity CASOB value. Item: COc1c(Cl)cc(F)c(N2C(=O)C3=C(CCCC3)C2=O)c1N
[reply] 0
